- method.description: inhibitors of TNFa-induced NFkB p65 translocation, primary screen, imaging, HUVEC, MLSMR starter and 10KST1 sets (AID 438);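 further: compound added about 3h40 before a 20 min TNFalpha stimulation; signal is the nuclear over cytoplasmic p65 intensity ratio per well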
- experimental.setup: HUVEC TNFa-induced p65 nuclear translocation; at 2 µM, active compounds read high, 0% TNFa-plus-vehicle, 100% no-TNFa wells

compound | display.unit | inhibition
COc1ccc(/C(O)=C2\C(=O)C(=O)N(CCN(C)C)C2c2cccc(OC)c2OC)cc1Cl (stereo not given) | % | -9.8
COc1ccc(CN(C(=O)c2oc3ccccc3c2C)C2CCS(=O)(=O)C2)cc1 (stereo not given) | % | 1.7
O=C(CCN1C(=O)C2C3C=CC(C3)C2C1=O)N1CCN(c2ccccc2Cl)CC1 (stereo not given) | % | -18.1
COc1ccccc1N1C(=O)CCC1(C#N)c1ccccc1 (stereo not given) | % | 6.9
Cc1cccc(-n2ncc3c(NCc4ccco4)ncnc32)c1 | % | -12.5
COc1ccc(Cc2noc(-c3ccc(C)cc3)n2)cc1 | % | 12.1
O=C(NC1CC1)C1CCC(=O)N1C1CCCC1 (stereo not given) | % | -6.7
Cn1nnc2cc(C(=O)N3CCCCCC3)ccc21 | % | 2.7
CC(C)N1C(=O)C2C(C(=O)NC3CCCCC3)C3C=CC2(O3)C1C(=O)NC1CCCC1 (stereo not given) | % | 4.3
CCN(CC)CCNc1ncnc2c1[nH]c1ccc(OC)cc12 | % | -7.6
CC(C)CCNc1nc2c(cc1C#N)COC(C)(C)C2 | % | -6.5
O=C(NCc1ccc2c(c1)OCO2)c1ccccn1 | % | -2
COc1ccc(OC)c(NS(=O)(=O)c2ccc(N3CCCC3=O)cc2)c1 | % | 24
COc1ccc(C(=O)N2CCCc3ccccc32)cc1 | % | 2.5
CCCCN(CCCC)C(=O)CSc1nnc2n(C)c(=O)c3c4c(sc3n12)CCCC4 | % | -18.2
CCCC(=O)Nc1c2c(nn1-c1ccc(OC)cc1)CS(=O)C2 (stereo not given) | % | 4.2
CCc1ccccc1NC(=O)c1ccoc1C | % | 2.4
CCCCCC1CC(CC(=O)O)C(=O)O1 (stereo not given) | % | -25.6
COC(=O)CC1SCCNC1=O (stereo not given) | % | 0.8
O=C1CC(c2ccccc2)n2nc(NS(=O)(=O)c3ccccc3)nc2N1 (stereo not given) | % | -12.1
CCc1nc2sc3ccccc3c(=O)c2c(=O)n1Cc1ccco1 | % | 14.3
O=C(CC(C(=O)N1CCc2ccccc21)n1ccnc1)NCc1cccnc1 (stereo not given) | % | -2.2
CCOC(=O)C1CCN(Cc2ccc(F)c(Br)c2)CC1 | % | 3.4
COc1ccc(C(O)C(CN2CCOCC2)c2ccccc2)cc1 (stereo not given) | % | -2.8
CCOC(=O)N1CCN(Cc2nc3c(c(=O)n(C)c(=O)n3C)n2Cc2ccccc2)CC1 | % | 2.9
CC1(C)CC(=O)C(C=Nc2ccc(Cl)cn2)=C(O)C1 | % | -2.2
Cc1ccc(-n2ncc3c(NCCCOC(C)C)ncnc32)c(C)c1 | % | -13.1
N#Cc1c(N2CCOCC2)nc(-c2ccco2)c2c1CCCC2 | % | -3
Cc1cc(OCC(=O)Nn2cnnc2)ccc1Br | % | -8.3
Cc1c(C)c2cc(Cl)c(O)c(CN3CCCC(C)C3)c2oc1=O (stereo not given) | % | -4.7
COc1ccc(S(=O)(=O)Nc2ccc3c(c2)OCO3)cc1Cl | % | 7
Cc1cc2ccccc2c(=O)n1CC(=O)Nc1ccc2c(c1)OCO2 | % | 0
Cc1ccc(C(=O)NCc2ccc3c(c2)OCO3)cc1S(=O)(=O)N1CCCCC1 | % | 4.7
CCn1cc(C(=O)N2CCOCC2)c(=O)c2cc(S(=O)(=O)N(C)C3CCCCC3)ccc21 | % | 7.1
O=C(NCc1cccs1)C1CC(=O)N(C2CCCC2)C1 (stereo not given) | % | -14.4
COCCn1c(SCC(=O)Nc2sc(C)c(C)c2C#N)nnc1C(C)C | % | -11.7
COc1ccc(OCC(=O)N2CCN(C(=O)COc3ccc(Br)cc3)CC2)cc1 | % | -28.3
COc1ccc(Oc2nc(Oc3ccc(OC)cc3)nc(Oc3ccc(OC)cc3)n2)cc1 | % | -5.1
CCOc1cc(C(=O)Nc2ncccn2)cc(OCC)c1OCC | % | 6.6
CC(C)COC(=O)NCC12C=CC(O1)C1C(=O)N(c3ccc(Cl)cc3)C(=O)C12 (stereo not given) | % | -0.5
